As shown below, each of these compounds has a reported pEC50 value.
# Tested on: sonic hedgehog pathway, HepM human embryonic palatal mesenchymal cells
# Protocol details: Human hedgehog reporter assay HEPM-GliLuc (HGL)
# Format: cell-based
# Recorded conditions: HepM human embryonic palatal mesenchymal cells, gli-luciferase reporter, Table 1
pEC50: −log10 of the molar value. Where a name gives a salt, the structure may show the parent alone.
Reported metric: pEC50

compound="CN[C@H]1CC[C@@H](N(Cc2cc(-c3ccnc(C(=O)O)c3)ccc2OC)C(=O)c2sc3c(F)ccc(F)c3c2Cl)CC1 [Compound R6, bis(trifluoroacetate)]" assayed_system="sonic hedgehog pathway, HepM human embryonic palatal mesenchymal cells" reported_metric=pEC50 result="6.60 to 7.30"
compound="CN[C@H]1CC[C@@H](N(Cc2cc(-c3cccnc3)ccc2OC)C(=O)c2sc3cccc(F)c3c2Cl)CC1 [360 (R16), dihydrochloride]" assayed_system="sonic hedgehog pathway, HepM human embryonic palatal mesenchymal cells" reported_metric=pEC50 result="> 7.30"
compound="CN[C@H]1CC[C@@H](N(Cc2cc(-c3cccc(C#N)c3)ccc2OC)C(=O)c2sc3ccccc3c2Cl)CC1 [Compound 304, hydrochloride]" assayed_system="sonic hedgehog pathway, HepM human embryonic palatal mesenchymal cells" reported_metric=pEC50 result="> 7.30"
compound="CCOc1ccc(-c2cncnc2)cc1CN(C(=O)c1sc2ccccc2c1Cl)[C@H]1CC[C@@H](NC)CC1 [Compound 326, dihydrochloride]" assayed_system="sonic hedgehog pathway, HepM human embryonic palatal mesenchymal cells" reported_metric=pEC50 result="6.60 to 7.30"
compound="CN[C@H]1CC[C@@H](N(Cc2cc(-c3ccc(C(C)=O)cc3)ccc2OC)C(=O)c2sc3ccccc3c2Cl)CC1 [Compound 303, hydrochloride]" assayed_system="sonic hedgehog pathway, HepM human embryonic palatal mesenchymal cells" reported_metric=pEC50 result="> 7.30"
compound="CN[C@H]1CC[C@@H](N(Cc2cc(-c3ccc(C#N)cc3)ccc2OC)C(=O)c2sc3c(F)ccc(F)c3c2Cl)CC1 [Compound 351, hydrochloride]" assayed_system="sonic hedgehog pathway, HepM human embryonic palatal mesenchymal cells" reported_metric=pEC50 result="> 7.30"
compound="CN[C@H]1CC[C@@H](N(Cc2cc(-c3cccc(C#N)c3)ccc2OC)C(=O)c2sc3c(F)ccc(F)c3c2Cl)CC1 [Compound 337, hydrochloride]" assayed_system="sonic hedgehog pathway, HepM human embryonic palatal mesenchymal cells" reported_metric=pEC50 result="> 7.30"
compound="CN[C@H]1CC[C@@H](N(Cc2cc(-c3ccc(S(C)(=O)=O)cc3)ccc2OC)C(=O)c2sc3ccccc3c2Cl)CC1 [Compound R7, hydrochloride]" assayed_system="sonic hedgehog pathway, HepM human embryonic palatal mesenchymal cells" reported_metric=pEC50 result="> 7.30"
compound="CN[C@H]1CC[C@@H](N(Cc2cc(-c3ccc(CCl)cc3)ccc2OC)C(=O)c2sc3ccccc3c2Cl)CC1 [Compound 340, hydrochloride]" assayed_system="sonic hedgehog pathway, HepM human embryonic palatal mesenchymal cells" reported_metric=pEC50 result="> 7.30"
compound="CNC(=O)c1cc(-c2ccc(OC)c(CN(C(=O)c3sc4c(F)ccc(F)c4c3Cl)[C@H]3CC[C@H](NC)CC3)c2)ccn1 [356 (R21), dihydrochloride]" assayed_system="sonic hedgehog pathway, HepM human embryonic palatal mesenchymal cells" reported_metric=pEC50 result="> 7.30"
compound="CN[C@H]1CC[C@@H](N(Cc2cc(-c3cccc(C(C)=O)c3)ccc2OC)C(=O)c2sc3c(F)ccc(F)c3c2Cl)CC1 [Compound 364, hydrochloride]" assayed_system="sonic hedgehog pathway, HepM human embryonic palatal mesenchymal cells" reported_metric=pEC50 result="> 7.30"
compound="CN[C@H]1CC[C@@H](N(Cc2cc(-c3ccc(C)nc3)ccc2OC)C(=O)c2sc3ccccc3c2Cl)CC1 [Compound 320, dihydrochloride]" assayed_system="sonic hedgehog pathway, HepM human embryonic palatal mesenchymal cells" reported_metric=pEC50 result="> 7.30"
